Reference for the values: paper PMC11142274

# test target: mouse CNPase catalytic domain (mouse, UniProt P16330)
# Sequence (P16330 179-398): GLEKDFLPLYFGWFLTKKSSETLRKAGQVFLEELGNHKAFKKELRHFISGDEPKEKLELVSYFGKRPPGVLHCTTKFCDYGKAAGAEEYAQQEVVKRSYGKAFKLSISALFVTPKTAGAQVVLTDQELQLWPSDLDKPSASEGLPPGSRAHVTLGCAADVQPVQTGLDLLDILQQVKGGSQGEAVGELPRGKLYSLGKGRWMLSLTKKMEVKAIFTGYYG
# method: ITC
Below, each entry is listed alongside its reported stoichiometry N.
Format: numeric value only, no unit, no commentary.

Use these answered entries as a reference point.
binder: anti-CNPase nanobody NbCNP 10E (VHH) VHH: EVQLEESGGGLVQPGGSLRLSCAVSGITLDDFGIGWFRQAPGKEREGVACISPGYEHIYYADSAKGRFTISRDNAKNTVYLQMNNLKPWDTGVYYCAADNDLPDRLWGGSDWSDPSPYDYWGQGTQVTVSS
stoichiometry N: 0.804
--
binder: anti-CNPase nanobody NbCNP 8C (VHH) VHH: EVQLEESGGGLVQAGGSLTLSCAASGFTFDDYAMGWYRQAPGKERVGVSCISRTDGYTYYLDSVKGRFTISTDHAKHTVYLQMNNLKPDDTGLYYCAADADPEYGSRCPDPYYGMDYWGKGILVTVSS
stoichiometry N: 0.914
--
binder: anti-CNPase nanobody NbCNP 7E (VHH) VHH: EVQLEESGGGWVHPGGSLRLSCAASGNVFGVNTMAWYRQAPGKQREQRELVASITDYGTTEYADSVKGRFTISGDNAKATVYLQMNSLKPEDTAVYYCNMDLTVMTATSSLYAYDYWGQGTQVTVSS
stoichiometry N: 0.863

Next item in the queue.
# lookup: stoichiometry N of MaBP-10E (His6-maltose binding protein fusion of NbCNP 10E) (VHH) VHH: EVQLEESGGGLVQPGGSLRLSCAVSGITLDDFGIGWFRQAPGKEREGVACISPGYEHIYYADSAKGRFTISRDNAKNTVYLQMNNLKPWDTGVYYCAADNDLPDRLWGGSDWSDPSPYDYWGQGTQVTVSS 0.836
